system: Eleusine indica (ELEIN); experiment: Post-emergence efficacy, Method A; assay type: in vivo; settings: Eleusine indica, post-emergence, 312 h; Application Rate 500 g/Ha; evaluated after 13 days; Method A; read-out: Control of weed species after post-emergence application, ELEIN (100=total damage to plant; 0=no damage to plant)
Each item that follows carries a reported pest or weed control at 500 g/ha.
Note: unit % is implicit; provide only the numeric part.

Previously resolved entries follow.
- O=C(O)CC[n+]1ccc(-c2ccnc(C(F)(F)F)c2)cn1: 60
- Nc1cc(-c2cc[n+](CCC(=O)O)nc2)ncn1: 90
- Cc1ccc(-c2cc[n+](CCC(=O)O)nc2)nc1: 10
- Nc1cc(-c2cc[n+](CCC(=O)O)nc2)nc(N)n1: 20
- O=c1[nH]c(-c2cc[n+](CCCS(=O)(=O)[O-])nc2)ncc1Cl: 10

Query block: Entry under review: `CCOP(=O)(CCC[n+]1ccc(-c2ncccn2)cn1)OCC` . Reported pest or weed control at 500 g/ha?
Result block: 0

Query block: GET /values?readout=pest or weed control at 500 g/ha&item= `O=P(O)(O)CCC[n+]1ccc(-c2ncccn2)cn1`
Result block: 50

Query block: Given the compound CC(CS(=O)(=O)[O-])[n+]1ccc(-c2ncccn2)cn1 (stereo not drawn) , what is its reported pest or weed control at 500 g/ha?
Result block: 100

Query block: Name the reported pest or weed control at 500 g/ha value associated with the compound `O=C(O)c1ccc(C[n+]2ccc(-c3ncccn3)cn2)cc1`
Result block: 10

Query block: Give the measured pest or weed control at 500 g/ha of `Nc1cc(-c2cc[n+](CCC(=O)O)nc2)ccn1` .
Result block: 20

Query block: Could you tell me which pest or weed control at 500 g/ha is on file for `Cc1cnc(-c2cc[n+](CCC(=O)O)nc2)c(F)c1` ?
Result block: 0

Query block: Using the record for `N#Cc1ccnc(-c2cc[n+](CCO)nc2)n1` , report its pest or weed control at 500 g/ha.
Result block: 50

---

system: Digitaria sanguinalis (DIGSA); experiment: Post-emergence efficacy, Method A; assay type: in vivo; conditions: Digitaria sanguinalis, post-emergence, 312 h; Application Rate 500 g/Ha; evaluated after 13 days; Method A; read-out: Control of weed species after post-emergence application, DIGSA (100=total damage to plant; 0=no damage to plant)
readout: pest or weed control at 500 g/ha (%)
Respond numerically; units are % and should not be typed.

Query block: Query: pest or weed control at 500 g/ha; subject: O=S(=O)([O-])CC(O)C[n+]1ccc(-c2ccncn2)cn1 (stereo not drawn)
Result block: 80

Query block: Look up pest or weed control at 500 g/ha for this compound: CC(CS(=O)(=O)[O-])[n+]1ccc(-c2ncccn2)cn1 (stereo not drawn)
Result block: 80

Query block: Which measured pest or weed control at 500 g/ha value corresponds to `Cc1cc(-c2cc[n+](CCS(=O)(=O)[O-])nc2)nc(C)n1` ?
Result block: 80

---

system: Digitaria sanguinalis (DIGSA); experiment: Post-emergence efficacy, Method A; assay type: in vivo; details: Digitaria sanguinalis, post-emergence, 312 h; Application rate 500 g/Ha; evaluated after 13 days; 100=total damage to plant, 0=no damage to plant; read-out: Control of weed species after post-emergence application, DIGSA
readout: pest or weed control at 500 g/ha
Please append the unit to your numeric answer.

• O=C(O)CC[n+]1ccc(-c2ncc(C(F)(F)F)cn2)cn1 [Compound A129] = 60%
• COc1cc(C)nc(-c2cc[n+](CCC(=O)[O-])nc2)n1 [Compound A105] = 60%

Pending molecule:
Query block: Recall the recorded pest or weed control at 500 g/ha for O=C([O-])CC[n+]1ccc(-c2ncccc2F)cn1 [Compound A67] with Digitaria sanguinalis (DIGSA) and state it.
Result block: 60%
